Reference for the values: PubChem BioAssay (Tox21)

- assayNotes: qHTS assay for small molecule agonists of the antioxidant response element (ARE) signaling pathway - cell viability counter screen (AID 743203); note: nearly all actives have a fitted effect of over 55% in size; note: potency is the fitted concentration of half-maximal effect
- conditionsUsed: ARE-bla HepG2 viability, CellTiter-Glo luminescence, 16 h; series mostly up to 73.3 µM
Inconclusive results are not listed. The source made the active and inactive calls. Calls come from the whole dose curve.
measuredProperty: Potency

Some solved cases for reference:
compound	Potency
CCCCCOC(=O)CCCC	inactive
O=C(O)c1ccc(Cl)c(Cl)c1	inactive
Cc1ccc(-n2nc(C(C)(C)C)cc2NC(=O)Nc2ccc(OCCN3CCOCC3)c3ccccc23)cc1	inactive
C[n+]1ccn(Cc2ccccc2)c1	inactive
COc1ccc(CN2CCN(C(c3ccc(F)cc3)c3ccc(F)cc3)CC2)c(OC)c1OC	inactive

Query :: Return reported Potency; argument: O=Cc1cc(O)ccc1Br
Result :: inactive

Query :: Return reported Potency; argument: NC(=O)C1(N2CCCCC2)CCN(CCCN2c3ccccc3CCc3ccc(Cl)cc32)CC1
Result :: 16.8 µM (active)

====

- assayNotes: qHTS assay for identifying genotoxic compounds that show differential cytotoxicity against isogenic chicken DT40 cell lines with known DNA damage response pathways - wild type cell line (AID 743012); note: nearly all actives have a fitted effect of over 60% in size
- conditionsUsed: DT40 wild type chicken cells viability, CellTiter-Glo, 40 h; series mostly up to 68.4 µM
- Text: U.S. Tox21 Program National Center for Advancing Translational Sciences [NCATS] NIH Chemical Genomics Center [NCGC] U.S. Environmental Protection Agency [EPA] National Institutes of Environmental Health Sciences [NIEHS] National Toxicology Program [NTP] U.S. Food and Drug Administration [FDA] Tox21 Assay Overview: DNA repair pathways play a critical role in cellular homeostasis by repairing DNA damage induced by endogenous processes and xenobiotics. […]
Records with an inconclusive call do not appear. Active and inactive are the calls of the source. The call rests on the fitted dose curve; in most records, active means well fitted cell-killing curve with a large enough effect in the repeat runs; inconclusive means weak or mixed curves, or effect the other way; inactive means no such curve, though single readings can be large or run the other way.
I would appreciate it if you answered using one of these outcomes: YES = active, NO = inactive

Illustrative cases are given below, each with its answer.
testSmiles	qualitativeLabel
CN1CCC(Nc2ncc3ncnc(Nc4ccc(F)c(Cl)c4)c3n2)CC1	YES
Clc1ccc2cc3ccccc3cc2c1	NO
NC(=O)NS(=O)(=O)c1ccc(N)cc1	NO
CCN(C(=O)c1cc(C)cc(OC[C@H](C)Nc2ccncc2)c1)C(C)C	YES
[Cl][Bi]([Cl])([c]1ccccc1)([c]1ccccc1)[c]1ccccc1	YES

# ---- query compound ----
Query :: Hi team, can someone confirm the assay call for Clc1ccc2nsnc2c1NC1=NCCN1 ?
Result :: NO

====

- assayNotes: qHTS assay to identify small molecule antagonists of the peroxisome proliferator-activated receptor gamma (PPARg) signaling pathway - cell viability counter screen (AID 743194); note: nearly all actives have a fitted effect of over 55% in size
- conditionsUsed: PPARg-bla HEK293H viability, CellTiter-Glo luminescence, 17 h, co-treated with 50 nM rosiglitazone; series mostly up to 62.6 µM
Inconclusive results are not listed. Calls of active or inactive are those of the source. The call rests on the fitted dose curve; in most records, active means well fitted cell-killing curve with a large enough effect in the repeat runs; inconclusive means weak or mixed curves, or effect the other way; inactive means no such curve, though single readings can be large or run the other way.
I would appreciate it if you answered using one of these outcomes: active, inactive

Illustrative cases are given below, each with its answer.
compound	qualitativeLabel
Cc1cc(O)c(C(C)(C)C)cc1Sc1cc(C(C)(C)C)c(O)cc1C	active
CCOc1ccc2nc3cc(N)ccc3c(N)c2c1	inactive
O=C(O)c1c(Cl)cccc1Cl	inactive
Cc1nc(-c2ccc3c(c2)CCN(CCC2CCC(NC(=O)/C=C/c4ccc(F)cc4)CC2)CC3)no1 (stereo not given)	inactive
O=C(Nc1cccc(Cl)c1)OCC#CCCl	active

Query :: Hi team, can someone confirm the assay call for CCCCCCCC[N+](CCCCCCCC)(CCCCCCCC)CCCCCCCC ?
Result :: active

Query :: Hi team, can someone confirm the assay call for CCN(C(=O)N(CC)c1ccccc1)c1ccccc1 ?
Result :: inactive

Query :: Hi team, can someone confirm the assay call for Nc1c2ccccc2nc2ccccc12 ?
Result :: inactive

Query :: Hi team, can someone confirm the assay call for O=C(c1ccc(O)cc1O)c1ccc(O)cc1O ?
Result :: inactive

Query :: Hi team, can someone confirm the assay call for O=C(Oc1cccc2cccnc12)c1ccccc1 ?
Result :: inactive
